# Test system: MDA-MB-231 breast
# procedureSummary: NCI tumour cell line growth inhibition, 48 h
param class (str): category from TGI; see ranges zone 1 = under 4 µM, zone 2 = from 4 µM up to 30 µM, zone 3 = 30 µM and over

QUERY: Class? Entry: N=C(N)c1nn(C2OC(CO)C(O)C2O)c2nc[nH]c(=O)c12 (stereo not drawn)
RESULT: zone 1

QUERY: Each compound maps to one class by TGI. Which class for CC1(C)CCC2(C(=O)OC3OC(CO)C(O)C(O)C3O)CC[C@]3(C)C(=CCC4C5(C)CC[C@H](OC6OC(C(=O)O)C(O)C(O)C6O)C(C)(C)C5CCC43C)C2C1 (stereo partly drawn) ?
RESULT: zone 1

QUERY: Given OCC1OC(n2ccc3c2ncn2ncnc32)C(O)C1O (stereo not drawn) , name the class its TGI places it in.
RESULT: zone 3

QUERY: Please classify: `COc1ccc(OC)c2sc(N3C(=O)/C(=C/Cc4ccco4)N=C3c3ccccc3)nc12`
RESULT: zone 3

QUERY: Looking at `CCCN(Cc1ccc(F)cc1)c1ccc(CO)c(Cl)c1` , which class would you pick?
RESULT: zone 2

QUERY: Please indicate the class for `CC[C@](C)(O)C(=O)O[C@H]1C(=O)O[C@@H]2C[C@H]3C(C)=CC(=O)[C@@H](O)[C@]3(C)[C@H]3[C@@]4(O)OC[C@]32[C@@H]1[C@@H](C)[C@H]4O` based on its TGI.
RESULT: zone 2

QUERY: // return the class label for `COc1ccc(Cn2nc(-c3cc(OC)c(OC)c(OC)c3)c3c2CCc2cnoc2-3)cc1OC`
RESULT: zone 3

QUERY: Class label required: `NC(=O)[C@H]1CCN(c2ncnc(N)c2F)C[C@@H]1N1CCC[C@@H](Nc2cc(Cl)cc(C(F)(F)F)c2)C1=O`
RESULT: zone 3

Source listed as PubChem BioAssay (NCI).
